System: SWV mice
Experiment: Teratogenicity in the SWV mouse model
Format: in vivo
Conditions: single i.p. 1.8 mmol/kg, share of implants
Measured No. of resorptions, figure in parentheses values are reported for all entries that follow.
// note: answer is a bare numeric in %

Examples with their reported No. of resorptions, figure in parentheses follow.
1) CCCC(COC(=O)Nc1ccc(S(N)(=O)=O)cc1)C(C)CC (stereo not drawn)	54.1
2) CCC(C)C(C)OC(=O)Nc1ccc(S(N)(=O)=O)cc1 (stereo not drawn)	54.2

No. of resorptions, figure in parentheses measured on CCC(C)CCOC(=O)Nc1ccc(S(N)(=O)=O)cc1 (stereo not drawn) = 48.2

====

hCA VII (Homo sapiens, UniProt P43166) data, read-out pKi
Sequence (P43166 whole entry): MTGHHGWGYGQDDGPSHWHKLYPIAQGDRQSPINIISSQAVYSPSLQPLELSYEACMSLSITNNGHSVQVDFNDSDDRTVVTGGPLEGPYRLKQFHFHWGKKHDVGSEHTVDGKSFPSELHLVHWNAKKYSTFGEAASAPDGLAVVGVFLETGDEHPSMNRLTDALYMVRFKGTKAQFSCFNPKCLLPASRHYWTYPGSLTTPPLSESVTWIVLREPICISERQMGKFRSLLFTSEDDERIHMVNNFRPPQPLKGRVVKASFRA
Bear in mind: pKi is minus log10 of a mol/L concentration; give just that figure.

1. CCC(CC)COC(=O)Nc1ccc(S(N)(=O)=O)cc1 [Compound 6]	7.28
2. CCCC(COC(=O)Nc1ccc(S(N)(=O)=O)cc1)C(C)CC (stereo not drawn) [Compound 1]	6.06
3. NS(=O)(=O)c1ccc(NC(=O)OCCc2ccccc2)cc1 [Compound 5, phenethyl (4-sulfamoylphenyl)carbamate]	7.61
4. CCC(C)C(C)OC(=O)Nc1ccc(S(N)(=O)=O)cc1 (stereo not drawn) [Compound 9]	7.45

Attention now turns to another entry.
Item: CCC(C)CCOC(=O)Nc1ccc(S(N)(=O)=O)cc1 (stereo not drawn) [Compound 10] | System: hCA VII (Homo sapiens, UniProt P43166) | pKi: 6.46

====

Measured No. of live fetuses, figure in parentheses values are reported for all entries that follow.
Test system: SWV mice
Assay: Teratogenicity in the SWV mouse model
Type: in vivo
Details: single i.p. 1.8 mmol/kg, share of implants
Provide the measurement as a number trailed by its unit.

Examples with their reported No. of live fetuses, figure in parentheses follow.
1) CCC(C)C(C)OC(=O)Nc1ccc(S(N)(=O)=O)cc1 (stereo not drawn) [Compound 9]	45.8%
2) CCCC(COC(=O)Nc1ccc(S(N)(=O)=O)cc1)C(C)CC (stereo not drawn) [Compound 1]	45.9%

No. of live fetuses, figure in parentheses measured on CCC(C)CCOC(=O)Nc1ccc(S(N)(=O)=O)cc1 (stereo not drawn) [Compound 10] = 51.9%

====

Test system: mice
Experiment: Neurotoxicity (minimal motor impairment, rotarod) in mice
Details: mice i.p., 30 mg/kg, 2.0 h
parameter: Tox (motor impairment or sedation), number of animals affected/number of animals tested

Examples with their reported Tox (motor impairment or sedation), number of animals affected/number of animals tested follow.
1) CC(COC(=O)Nc1ccc(S(N)(=O)=O)cc1)CC(C)(C)C (stereo not shown) [Compound 7]	0/8
2) CCC(C)C(C)OC(=O)Nc1ccc(S(N)(=O)=O)cc1 (stereo not shown) [Compound 9]	0/8

Tox (motor impairment or sedation), number of animals affected/number of animals tested measured on NS(=O)(=O)c1ccc(NC(=O)OCCc2ccccc2)cc1 [Compound 5, phenethyl (4-sulfamoylphenyl)carbamate] = 0/8

====

hCA IV (Homo sapiens, UniProt P22748) data, read-out log10 Ki
Sequence (P22748 19-284): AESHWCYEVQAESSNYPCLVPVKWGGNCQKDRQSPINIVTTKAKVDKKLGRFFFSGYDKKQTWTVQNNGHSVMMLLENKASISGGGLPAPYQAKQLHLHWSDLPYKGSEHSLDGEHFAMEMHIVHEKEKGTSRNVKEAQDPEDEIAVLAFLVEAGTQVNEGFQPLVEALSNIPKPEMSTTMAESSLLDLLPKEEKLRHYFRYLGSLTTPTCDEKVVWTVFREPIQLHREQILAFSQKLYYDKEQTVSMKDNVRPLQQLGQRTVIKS
On a log10 scale: recorded Ki, unit nM.

Examples with their reported log10 Ki follow.
1. CC(C)C(OC(=O)Nc1ccc(S(N)(=O)=O)cc1)C(C)C	2.66
2. CCC(CC)COC(=O)Nc1ccc(S(N)(=O)=O)cc1	3.23
3. NS(=O)(=O)c1ccc(NC(=O)OCCc2ccccc2)cc1 [Compound 5, phenethyl (4-sulfamoylphenyl)carbamate]	2.48
4. CCC(C)C(C)OC(=O)Nc1ccc(S(N)(=O)=O)cc1 (stereo not shown)	2.26

Attention now turns to another entry.
Item: CC(COC(=O)Nc1ccc(S(N)(=O)=O)cc1)CC(C)(C)C (stereo not shown) | System: hCA IV (Homo sapiens, UniProt P22748) | log10 Ki: 3.44

====

Tested on: mice
Experiment: Neurotoxicity (minimal motor impairment, rotarod) in mice
Settings: mice i.p., 300 mg/kg, 0.5 h
parameter: Tox (motor impairment or sedation), number of animals affected/number of animals tested

Examples with their reported Tox (motor impairment or sedation), number of animals affected/number of animals tested follow.
1. CC(COC(=O)Nc1ccc(S(N)(=O)=O)cc1)CC(C)(C)C (stereo not shown)	0/8
2. CC(C)(C)CCOC(=O)Nc1ccc(S(N)(=O)=O)cc1	0/8
3. NS(=O)(=O)c1ccc(NC(=O)OCCc2ccccc2)cc1 [Compound 5, phenethyl (4-sulfamoylphenyl)carbamate]	0/8
4. CCCC(CCC)COC(=O)Nc1ccc(S(N)(=O)=O)cc1	0/8
5. CCCCC(CC)COC(=O)Nc1ccc(S(N)(=O)=O)cc1 (stereo not shown)	0/8

Tox (motor impairment or sedation), number of animals affected/number of animals tested measured on `CCC(CC)COC(=O)Nc1ccc(S(N)(=O)=O)cc1` = 0/8

Tox (motor impairment or sedation), number of animals affected/number of animals tested measured on `CC(C)C(OC(=O)Nc1ccc(S(N)(=O)=O)cc1)C(C)C` = 1/8

Tox (motor impairment or sedation), number of animals affected/number of animals tested measured on CCCC(COC(=O)Nc1ccc(S(N)(=O)=O)cc1)C(C)CC (stereo not shown) = 0/8

Tox (motor impairment or sedation), number of animals affected/number of animals tested measured on CCC(C)C(C)OC(=O)Nc1ccc(S(N)(=O)=O)cc1 (stereo not shown) = 0/8

Tox (motor impairment or sedation), number of animals affected/number of animals tested measured on CCC(C)CCOC(=O)Nc1ccc(S(N)(=O)=O)cc1 (stereo not shown) = 1/8

====

Assay: in vivo
Conditions: male, Sprague-Dawley, rat, po
parameter: TD50

1) CCC(C)CCOC(=O)Nc1ccc(S(N)(=O)=O)cc1 (centres unmarked) [Compound 10]	> 500 mg/kg

TD50 measured on CCC(C)C(C)OC(=O)Nc1ccc(S(N)(=O)=O)cc1 (centres unmarked) [Compound 9] = > 500 mg/kg

The origin of these recorded values is patent US20180339963A1.
